experiment: in vitro
recorded-conditions: hepatocytes
Residues, ends and D or L forms follow the SMILES beside them.
quantity-measured: hepatocyte CLint

Which hepatocyte CLint is listed for CCCS(=O)(=O)N1N=Cc2cc(Cl)ccc2B1O ?
< 3 µL/min/1e6 cells

Which hepatocyte CLint is listed for NC1(c2ccc(-c3nc4ccccn4c3-c3ccccc3)cc2)CCC1 ?
> 150 µL/min/1e6 cells

Which hepatocyte CLint is listed for O=C(c1ccccc1)N1CCC2(CCN(Cc3cccc(Cl)c3)CC2)CC1 ?
< 3 µL/min/1e6 cells

Which hepatocyte CLint is listed for CCCCCCCC(=O)N[C@@H](CCN)C(=O)N[C@@H](C)C(=O)N[C@@H](CCN)C(=O)N[C@H]1CCNC(=O)[C@H]([C@@H](C)O)NC(=O)[C@H](CCN)NC(=O)[C@H](CCN)NC(=O)[C@H](CC(C)C)NC(=O)[C@@H](Cc2ccccc2)NC(=O)[C@H](CCN)NC1=O (HELM PEPTIDE1{[CCCCCCCC(=O)[*:2]].[Dab].A.[Dab].[Dab].[Dab].[dF].L.[Dab].[Dab].T}$PEPTIDE1,PEPTIDE1,5:R3-11:R2$$$V2.0) ?
< 3 µL/min/1e6 cells

Which hepatocyte CLint is listed for COC(=O)c1ccc(C)c(NS(=O)(=O)c2ccc3c(c2)c(=O)sn3C)c1 ?
> 150 µL/min/1e6 cells
